System: Vero cells
READOUT_NAME: CC50

Summary: C=CCC(=NOS(=O)(=O)O)S[C@@H]1O[C@H](CO)[C@@H](O)[C@H](O)[C@H]1O (stereo in doubt) , Vero cells, CC50 = > 10 mM

====

Assay: in vitro
Conditions: African green monkey, CC50 of cell death
READOUT_NAME: CC50 (µg/mL)
The figure you give is taken to be in µg/mL; do not add the unit.

Noted for `O=C1/C(=C2\Nc3ccccc3C2=O)Nc2ccccc21` : its CC50 reads 917
